- Tested on: Staphylococcus aureus
- METHOD NOTES: Antibacterial activity against methicillin-resistant Staphylococcus aureus clinical isolate M17 by CLSI based micro-broth dilution method
- Format: functional
MEASURED QUANTITY: MIC (µg/mL)
Give just the numeric value; µg/mL need not be written.

{"columns": ["SMILES NOTATION", "NUMBER"],
 "data": [
  ["C=CCc1cc(-c2ccc(OCCC[N+](C)(C)CC(=O)NCCCC)c(CC=C)c2)c2oc(=S)n(Cc3ccccc3Cl)c2c1.[Br-]", 16],
  ["C=CCc1cc(-c2ccc(OCCC[N+](C)(C)CC(=O)NCCCC)c(CC=C)c2)c2oc(=S)n(Cc3ccccc3F)c2c1.[Br-]", 8]
]}

Tell me the measured MIC of `C=CCc1cc(-c2ccc(OCCC[N+](C)(C)CC(=O)NCCCC)c(CC=C)c2)c2oc(=S)n(Cc3ccc(Cl)c(F)c3)c2c1.[Br-]` , please. 128

Tell me the measured MIC of `C=CCc1cc(-c2ccc(OCCC[N+](C)(C)CC(=O)NCCCC)c(CC=C)c2)c2oc(=S)n(Cc3ccc(F)cc3)c2c1.[Br-]` , please. 4

Tell me the measured MIC of `C=CCc1ccc(O)c(-c2ccc(O)c(CC=C)c2)c1` , please. 16

Tell me the measured MIC of `C=CCc1cc(-c2ccc(OCCC[N+](C)(C)CC(=O)NCCCC)c(CC=C)c2)c2oc(=S)n(Cc3ccc(Cl)c(Br)c3)c2c1.[Br-]` , please. 128

---

Consider the following molecules and their measured MIC readings.
- Tested on: Staphylococcus aureus
- METHOD NOTES: Antibacterial activity against methicillin-resistant Staphylococcus aureus clinical isolate M20 by CLSI based micro-broth dilution method
- Format: functional
Give just the numeric value; µg/mL need not be written.

{"columns": ["SMILES NOTATION", "NUMBER"],
 "data": [
  ["C=CCc1cc(-c2ccc(OCCC[N+](C)(C)CC(=O)NCCCC)c(CC=C)c2)c2oc(=S)n(Cc3ccccc3Br)c2c1.[Br-]", 64]
]}

Tell me the measured MIC of `C=CCc1cc(-c2ccc(OCCC[N+](C)(C)CC(=O)NCCCC)c(CC=C)c2)c2oc(=S)n(Cc3ccc(F)c(Cl)c3)c2c1.[Br-]` , please. 16

Tell me the measured MIC of `C=CCc1cc(-c2ccc(OCCC[N+](C)(C)CC(=O)NCCCC)c(CC=C)c2)c2oc(=S)n(Cc3ccccc3F)c2c1.[Br-]` , please. 8

Tell me the measured MIC of `C=CCc1cc(-c2ccc(OCCC[N+](C)(C)CC(=O)NCCCC)c(CC=C)c2)c2oc(=S)n(Cc3cc(Cl)cc(Cl)c3)c2c1.[Br-]` , please. 16

Tell me the measured MIC of `C=CCc1cc(-c2ccc(OCCC[N+](C)(C)CC(=O)NCCCC)c(CC=C)c2)c2oc(=S)n(Cc3cccc(OC)c3)c2c1.[Br-]` , please. 4

---

- METHOD NOTES: Selectivity index, ratio of HC50 for hemolytic activity in sheep erythrocytes to MIC for antibacterial activity against Staphylococcus aureus ATCC 29213
- Format: toxicity, cell-based, RBC
MEASURED QUANTITY: selectivity ratio
Form field (numeric): enter value without unit.

Below are worked cases with known answers.
{"columns": ["SMILES NOTATION", "selectivity ratio"],
 "data": [
  ["C=CCc1cc(-c2ccc(OCCC[N+](C)(C)CC(=O)NCCCC)c(CC=C)c2)c2oc(=S)n(Cc3cc(Cl)cc(Cl)c3)c2c1.[Br-]", 0.5],
  ["C=CCc1cc(-c2ccc(OCCC[N+](C)(C)CC(=O)NCCCC)c(CC=C)c2)c2oc(=S)n(Cc3ccc(Cl)cc3)c2c1.[Br-]", 32.5],
  ["C=CCc1cc(-c2ccc(OCCC[N+](C)(C)CC(=O)NCCCC)c(CC=C)c2)c2oc(=S)n(Cc3ccc(Br)cc3Br)c2c1.[Br-]", 0.5]
]}

Now examine the next entry.
Tell me the measured selectivity ratio of `C=CCc1cc(-c2ccc(OCCC[N+](C)(C)CC(=O)NCCCC)c(CC=C)c2)c2oc(=S)n(Cc3ccc(F)c(Br)c3)c2c1.[Br-]` , please. 2.6

---

- Tested on: Staphylococcus aureus
- METHOD NOTES: Antibacterial activity against methicillin-resistant Staphylococcus aureus clinical isolate M16 by CLSI based micro-broth dilution method
- Type: functional
MEASURED QUANTITY: MIC (µg/mL)
Give just the numeric value; µg/mL need not be written.

Tell me the measured MIC of `C=CCc1cc(-c2ccc(OCCC[N+](C)(C)CC(=O)NCCCC)c(CC=C)c2)c2oc(=S)n(Cc3cccc(Cl)c3Cl)c2c1.[Br-]` , please. 64

Tell me the measured MIC of `C=CCc1cc(-c2ccc(OCCC[N+](C)(C)CC(=O)NCCCC)c(CC=C)c2)c2oc(=S)n(Cc3ccc(Br)cc3)c2c1.[Br-]` , please. 16

Tell me the measured MIC of `C=CCc1cc(-c2ccc(OCCC[N+](C)(C)CC(=O)NCCCC)c(CC=C)c2)c2oc(=S)n(Cc3c(Cl)cccc3Cl)c2c1.[Br-]` , please. 8

Tell me the measured MIC of `C=CCc1cc(-c2ccc(OCCC[N+](C)(C)CC(=O)NCCCC)c(CC=C)c2)c2oc(=S)n(Cc3ccc(F)c(F)c3)c2c1.[Br-]` , please. 4

---

- Tested on: Staphylococcus aureus
- METHOD NOTES: Antibacterial activity against methicillin-resistant Staphylococcus aureus clinical isolate M20 by CLSI based micro-broth dilution method
- Assay type: functional
Consider the following molecules and their measured MIC readings.
Give just the numeric value; µg/mL need not be written.

Below are worked cases with known answers.
{"columns": ["SMILES NOTATION", "MIC / µg/mL"],
 "data": [
  ["C=CCc1cc(-c2ccc(OCCC[N+](C)(C)CC(=O)NCCCC)c(CC=C)c2)c2oc(=S)n(Cc3ccc(Br)cc3)c2c1.[Br-]", 16],
  ["C=CCc1cc(-c2ccc(OCCC[N+](C)(C)CC(=O)NCCCC)c(CC=C)c2)c2oc(=S)n(Cc3c(Cl)cccc3Cl)c2c1.[Br-]", 8],
  ["C=CCc1cc(-c2ccc(OCCC[N+](C)(C)CC(=O)NCCCC)c(CC=C)c2)c2oc(=S)n(Cc3cc(Br)cc(Br)c3)c2c1.[Br-]", 32]
]}

Now examine the next entry.
Tell me the measured MIC of `C=CCc1cc(-c2ccc(OCCC[N+](C)(C)CC(=O)NCCCC)c(CC=C)c2)c2oc(=S)n(Cc3ccc(F)cc3Cl)c2c1.[Br-]` , please. 16

---

Consider the following compounds and their measured MIC readings.
- Tested on: Staphylococcus aureus
- METHOD NOTES: Antibacterial activity against methicillin-resistant Staphylococcus aureus clinical isolate M13 by CLSI based micro-broth dilution method
- Type: functional
Give just the numeric value; µg/mL need not be written.

{"columns": ["SMILES NOTATION", "MIC (µg/mL)"],
 "data": [
  ["C=CCc1cc(-c2ccc(OCCC[N+](C)(C)CC(=O)NCCCC)c(CC=C)c2)c2oc(=S)n(Cc3cccc(Br)c3)c2c1.[Br-]", 8]
]}

Tell me the measured MIC of `C=CCc1cc(-c2ccc(OCCC[N+](C)(C)CC(=O)NCCCC)c(CC=C)c2)c2oc(=S)n(Cc3cc(Br)ccc3F)c2c1.[Br-]` , please. 16

Tell me the measured MIC of `C=CCc1cc(-c2ccc(OCCC[N+](C)(C)CC(=O)NCCCC)c(CC=C)c2)c2oc(=S)n(Cc3ccccc3F)c2c1.[Br-]` , please. 8

Tell me the measured MIC of `C=CCc1cc(-c2ccc(OCCC[N+](C)(C)CC(=O)NCCCC)c(CC=C)c2)c2oc(=S)n(Cc3ccc(Br)cc3)c2c1.[Br-]` , please. 16

Tell me the measured MIC of `C=CCc1cc(-c2ccc(OCCC[N+](C)(C)CC(=O)NCCCC)c(CC=C)c2)c2oc(=S)n(Cc3ccc(F)cc3)c2c1.[Br-]` , please. 4

---

- METHOD NOTES: Selectivity index, ratio of HC50 for hemolytic activity in sheep erythrocytes to MIC for antibacterial activity against Staphylococcus aureus ATCC 29213
- Type: toxicity, cell-based, RBC
Consider the following molecules and their measured selectivity ratio readings.

Below are worked cases with known answers.
{"columns": ["MOLECULE", "selectivity ratio"],
 "data": [
  ["C=CCc1cc(-c2ccc(OCCC[N+](C)(C)CC(=O)NCCCC)c(CC=C)c2)c2oc(=S)n(Cc3cc(Br)ccc3F)c2c1.[Br-]", "> 10"],
  ["C=CCc1cc(-c2ccc(OCCC[N+](C)(C)CC(=O)NCCCC)c(CC=C)c2)c2oc(=S)n(Cc3ccc(Cl)c(F)c3)c2c1.[Br-]", "> 5"]
]}

Tell me the measured selectivity ratio of `C=CCc1cc(-c2ccc(OCCC[N+](C)(C)CC(=O)NCCCC)c(CC=C)c2)c2oc(=S)n(Cc3cccc(OC)c3)c2c1.[Br-]` , please. > 20

Tell me the measured selectivity ratio of C=CCc1ccc(O)c(-c2ccc(O)c(CC=C)c2)c1 [HONOKIOL] , please. > 2.5

Tell me the measured selectivity ratio of `C=CCc1cc(-c2ccc(OCCC[N+](C)(C)CC(=O)NCCCC)c(CC=C)c2)c2oc(=S)n(Cc3ccc(F)cc3Cl)c2c1.[Br-]` , please. > 5

Tell me the measured selectivity ratio of `C=CCc1cc(-c2ccc(OCCC[N+](C)(C)CC(=O)NCCCC)c(CC=C)c2)c2oc(=S)n(Cc3ccc(C(F)(F)F)cc3)c2c1.[Br-]` , please. > 20

Tell me the measured selectivity ratio of `C=CCc1cc(-c2ccc(OCCC[N+](C)(C)CC(=O)NCCCC)c(CC=C)c2)c2oc(=S)n(Cc3ccccc3Br)c2c1.[Br-]` , please. > 1.3
